# Test system: Klebsiella pneumoniae
# experiment.notes: Antibacterial activity against Klebsiella pneumoniae ATCC 700603
# Assay type: functional
Consider the following compounds; for each one, report its MIC.
Enter your answer as a number in µg/mL; do not include the unit.

Which MIC is reported for this compound? CN(CC(=O)O)NC(=O)C[C@H](N)C[C@@H](O)CNCCN
32

Could you do the same for CNCCCNC[C@H](O)C[C@@H](N)CC(=O)NN(C)CC(=O)O , please?
64

Could you do the same for COCCNC[C@H](O)C[C@@H](N)CC(=O)NN(C)CC(=O)O , please?
128

Could you do the same for CN(CC(=O)O)NC(=O)C[C@H](N)CCCN , please?
128

Could you do the same for CN(C)CCCNC[C@H](O)C[C@@H](N)CC(=O)NN(C)CC(=O)O , please?
256

Could you do the same for CN(CC(=O)O)NC(=O)C[C@H](N)C[C@@H](O)CNC(CCN)c1ccccc1 (stereo partly specified) , please?
64

Could you do the same for CCNC[C@H](O)C[C@@H](N)CC(=O)NN(C)CC(=O)O , please?
64

Could you do the same for CN(CC(=O)O)NC(=O)C[C@H](N)C[C@@H](O)CNCCCO , please?
512

* * *

# System: Escherichia coli
# experiment.notes: microbe, parasite or virus in culture
# condition.parameters: ATCC 25922
# Description: Antibacterial activity against tolC-deficient Escherichia coli ATCC 25922
reported.property: MIC (mg/L)
Enter your answer as a number in mg/L; do not include the unit.

Which MIC is reported for this compound? CN(CC(=O)O)NC(=O)C[C@H](N)C[C@@H](O)CNCCCCN
32

Could you do the same for CN(CC(=O)O)NC(=O)C[C@@H](N)C[C@@H](O)CNCCCN , please?
128

Could you do the same for CN(C)[C@@H]1C(O)=C(C(N)=O)C(=O)[C@@]2(O)C(O)=C3C(=O)c4c(O)cccc4[C@@](C)(O)[C@H]3C[C@@H]12 [TETRACYCLINE] , please?
0.5

Could you do the same for CC(N)CCNC[C@H](O)C[C@@H](N)CC(=O)NN(C)CC(=O)O (stereo partly specified) , please?
64

Could you do the same for CN(CC(=O)O)NC(=O)C[C@H](N)C[C@@H](O)CNCCN , please?
64

Could you do the same for CN(CC(=O)O)NC(=O)C[C@H](N)C[C@@H](O)CNCCF , please?
128

Could you do the same for CN(CC(=O)O)NC(=O)C[C@H](N)C[C@@H](O)CNCCC(N)=O , please?
256

Could you do the same for CN(CC(=O)O)NC(=O)C[C@H](N)C[C@@H](O)CNCCCN , please?
16

Could you do the same for COCCNC[C@H](O)C[C@@H](N)CC(=O)NN(C)CC(=O)O , please?
128

Could you do the same for CN(CC(=O)O)NC(=O)C[C@H](N)C[C@@H](O)CNCC1CNC1 , please?
128

Could you do the same for CN(CC(=O)O)NC(=O)C[C@H](N)C[C@@H](O)CNCC(F)CN (stereo partly specified) , please?
128

Could you do the same for CN(CC(=O)O)NC(=O)C[C@H](N)C[C@@H](O)CNCCO , please?
128

Could you do the same for CN(CC(=O)O)NC(=O)C[C@H](N)C[C@@H](O)CNCC1CCNC1 (stereo partly specified) , please?
256

Could you do the same for CN(CC(=O)O)NC(=O)C[C@H](N)C[C@@H](O)CNC[C@H](O)CN , please?
32

Could you do the same for CC(CN)CNC[C@H](O)C[C@@H](N)CC(=O)NN(C)CC(=O)O (stereo partly specified) , please?
16

Could you do the same for CN(CC(=O)O)NC(=O)C[C@H](N)C[C@@H](O)CNCCCNC(=N)N , please?
256

Could you do the same for CN(CC(=O)O)NC(=O)C[C@H](N)C[C@@H](O)CNCCCO , please?
128

Could you do the same for CN(CC(=O)O)NC(=O)C[C@H](N)C[C@@H](O)CNCc1ccccn1 , please?
256

Could you do the same for CC(CCN)NC[C@H](O)C[C@@H](N)CC(=O)NN(C)CC(=O)O (stereo partly specified) , please?
16

Could you do the same for CN(CC(=O)O)NC(=O)C[C@H](N)C[C@@H](O)CN [NEGAMYCIN] , please?
16

* * *

# Test system: Escherichia coli
# experiment.notes: microbe, parasite or virus in culture
# condition.parameters: ATCC 25922
reported.property: MIC (µg/mL)
Enter your answer as a number in µg/mL; do not include the unit.

Record CN(CC(=O)O)NC(=O)C[C@H](N)C[C@@H](O)CNCC(N)CN (stereo not given in full) : what is its MIC with Escherichia coli?
128

Could you do the same for CN(CC(=O)O)NC(=O)C[C@H](N)C[C@@H](O)CNC(CCN)c1ccccc1 (stereo not given in full) , please?
128

Could you do the same for CN(CC(=O)O)NC(=O)C[C@H](N)C[C@@H](O)CNC[C@@H](O)CN , please?
64

Could you do the same for CNCCCNC[C@H](O)C[C@@H](N)CC(=O)NN(C)CC(=O)O , please?
256

* * *

# System: Klebsiella pneumoniae
# experiment.notes: Antibacterial activity against Klebsiella pneumoniae ATCC 700603
# Format: functional
reported.property: MIC

Which MIC is reported for this compound? CN(CC(=O)O)NC(=O)C[C@H](N)C[C@@H](O)[C@H](N)CO
> 512 µg/mL

Could you do the same for CC(C(=O)NN(C)CC(=O)O)[C@H](N)C[C@@H](O)CN (stereo partly drawn) , please?
≥ 256 µg/mL

Could you do the same for NC[C@H](O)C[C@@H](N)CC(=O)NNCC(=O)O , please?
> 64 µg/mL
